Biological target: T1, human Prostate Specific Membrane Antigen (PSMA) (human, UniProt Q04609 1-750)
T1 construct: whole, on cells; also called Glutamate Carboxypeptidase II; FOLH1
T1 sequence (Q04609 whole entry): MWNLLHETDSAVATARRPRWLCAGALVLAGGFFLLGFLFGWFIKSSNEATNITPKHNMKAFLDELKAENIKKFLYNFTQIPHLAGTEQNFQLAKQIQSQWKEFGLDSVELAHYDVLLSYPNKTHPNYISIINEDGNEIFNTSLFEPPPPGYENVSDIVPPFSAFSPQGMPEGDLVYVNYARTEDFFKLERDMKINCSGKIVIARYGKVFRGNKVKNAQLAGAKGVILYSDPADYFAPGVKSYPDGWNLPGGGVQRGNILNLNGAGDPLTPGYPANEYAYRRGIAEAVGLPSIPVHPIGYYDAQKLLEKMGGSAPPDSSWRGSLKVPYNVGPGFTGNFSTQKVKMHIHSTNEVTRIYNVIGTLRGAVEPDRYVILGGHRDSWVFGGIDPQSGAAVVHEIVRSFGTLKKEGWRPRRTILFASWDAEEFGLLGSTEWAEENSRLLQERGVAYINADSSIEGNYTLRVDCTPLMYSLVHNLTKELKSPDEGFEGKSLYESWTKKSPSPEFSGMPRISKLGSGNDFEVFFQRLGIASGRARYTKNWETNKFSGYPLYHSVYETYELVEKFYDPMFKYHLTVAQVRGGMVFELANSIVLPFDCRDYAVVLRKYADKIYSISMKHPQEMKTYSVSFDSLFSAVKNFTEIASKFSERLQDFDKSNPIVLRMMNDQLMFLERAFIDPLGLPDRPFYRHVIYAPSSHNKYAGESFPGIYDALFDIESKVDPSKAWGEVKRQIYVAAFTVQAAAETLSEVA
Experiment: flow cytometry on LNCaP cells
Could you please mark Criterion met for values of fold over background MFI below 40 fold over background and Criterion not met for values at or above it?

binder="anti-PSMA heavy-chain antibody (HCAb) clone ID 345497 (antibody, V domains shown, Heavy chain-only antibody (UniAb)) VH: QVQLVESGGGVVQPGRSLRLSCAASGFSFSRYGMHWVRQAPGKGLEGVAVIWYDGSNRYYADSVKGRFTISRDNSKNTLYLQMNSLRAEDTAVYYCAREPRIGYYYESSGYYSLDYRGQGTLVTVSS" classification="Criterion not met"

Pending binder:
Exam item: Given anti-PSMA heavy-chain antibody (HCAb) clone ID 345510 (antibody, V domains shown, Heavy chain-only antibody (UniAb)) VH: QVQLVESGGGVVQPGRSLRLSCAASGFSFSSYGMHWVRQAPGKGLEWVAVIWYDGSNKYYADSVKGRFTISRDNSKNTMYLQMNSLRAEDTAVYYCAREPRIGYYYESSGYYSLDYRGQGTLVTVSS , is recorded fold over background MFI strictly lower than 40 fold over background?
Marked response: Criterion met
